target: HLA-A*0301 (human); assay: competition with 125I-labelled standard peptide for purified HLA-A*0301, gel filtration
measured property: binding affinity ratio (IC50 of standard peptide / IC50 of test peptide)
Respond with the number and no other words.

Incoming: Output measured binding affinity ratio (IC50 of standard peptide / IC50 of test peptide) for this item: GDTPEWIQR (modifications not checked) [HPV18 E1 341 …]
Outgoing: 0.0008

Incoming: Output measured binding affinity ratio (IC50 of standard peptide / IC50 of test peptide) for this item: SLFGMSLMK (modifications not checked) [HPV16 E1 484 …]
Outgoing: 0.72

Incoming: Output measured binding affinity ratio (IC50 of standard peptide / IC50 of test peptide) for this item: GVLILALLR (modifications not checked) [HPV18 E1 279 …]
Outgoing: 0.0058

Incoming: Output measured binding affinity ratio (IC50 of standard peptide / IC50 of test peptide) for this item: TAQEAKQHR (modifications not checked) [HPV16 E1 72 …]
Outgoing: 0.0005

Incoming: Output measured binding affinity ratio (IC50 of standard peptide / IC50 of test peptide) for this item: LTTNIHPAK (modifications not checked) [… (HPV18 E1, position 571, 9 amino acids)]
Outgoing: 0.091

Incoming: Output measured binding affinity ratio (IC50 of standard peptide / IC50 of test peptide) for this item: SVICFVNSK (modifications not checked) [HPV16 E1 497 …]
Outgoing: 0.0005

Incoming: Output measured binding affinity ratio (IC50 of standard peptide / IC50 of test peptide) for this item: LTNILNVLK (modifications not checked) [HPV16 E1 191 …]
Outgoing: 0.0086

Incoming: Output measured binding affinity ratio (IC50 of standard peptide / IC50 of test peptide) for this item: ISLNSGQKK (modifications not checked) [HPV18 E1 116 …]
Outgoing: 0.0003

Source of measurements: patent US7026443
